Below, each entry is listed with its recorded viability at 24 h.
Test: Resazurin cell viability, PA-1/E6 cells
Type: cell-based, human
Conditions: human, PA-1/E6 cells (PA-1 cells stably transfected with E6)

{"compound": "O=c1cc(-c2ccccc2)oc2cc(O)c(O)c(O)c12 [baicalein]", "viability at 24 h": "> 50%"}

Let's switch to this compound now.
In one line, give reported viability at 24 h of the entry O=c1c(O)c(-c2ccc(O)c(O)c2)oc2c(O)c(O)cc(O)c12 [Gossypetin] . > 50%
